Recorded values, source patent US20190040115A1.

Molecular target: T1, HLA-A*02:01 (human)
T1 construct: captured on streptavidin plates; also called peptide-receptive MHC molecules
Experiment: UV peptide exchange ELISA (anti-b2m); yield grade: + >10%, ++ >20%, +++ >50, ++++ >75%
Text: Candidate peptides for T cell based therapies according to the present invention were further tested for their MHC binding capacity (affinity). The individual peptide-MHC complexes were produced by UV-ligand exchange, where a UV-sensitive peptide is cleaved upon UV-irradiation, and exchanged with the peptide of interest as analyzed. Only peptide candidates that can effectively bind and stabilize the peptide-receptive MHC molecules prevent dissociation of the MHC complexes. […]
MEASUREMENT LABEL: peptide exchange yield

# example entries with known answers
{"BINDER": "TLPNIYVTL", "peptide exchange yield": "50 to 75%"}
{"BINDER": "LLDTTQKYL", "peptide exchange yield": "> 75%"}
{"BINDER": "VVVDPIQSV", "peptide exchange yield": "50 to 75%"}
{"BINDER": "ILDYIHNGL", "peptide exchange yield": "50 to 75%"}
{"BINDER": "SLKQTVVTL", "peptide exchange yield": "50 to 75%"}
{"BINDER": "GLAGFFASV", "peptide exchange yield": "> 75%"}

*Q* Any idea what peptide exchange yield was measured for TLDDIMAAV ?
*A* 50 to 75%

*Q* Any idea what peptide exchange yield was measured for LLGEGIPSA ?
*A* > 75%

*Q* Any idea what peptide exchange yield was measured for TLKEYLESL ?
*A* 50 to 75%

*Q* Any idea what peptide exchange yield was measured for KLIPSIIVL ?
*A* 50 to 75%

*Q* Any idea what peptide exchange yield was measured for KIEDLIKYL ?
*A* 50 to 75%

*Q* Any idea what peptide exchange yield was measured for RMDEEFTKI ?
*A* 50 to 75%

*Q* Any idea what peptide exchange yield was measured for SLDEVAVSL ?
*A* > 75%

*Q* Any idea what peptide exchange yield was measured for HTLPHEIVVNL ?
*A* 50 to 75%

*Q* Any idea what peptide exchange yield was measured for TLISDIEAVKA ?
*A* 50 to 75%

*Q* Any idea what peptide exchange yield was measured for TLSEICEFI ?
*A* > 75%
